Target: PI3K α (p110α/p85α) (Homo sapiens, UniProt P42336)
Construct: purchased Upstate / Millipore Corporation
Sequence (P42336 whole entry): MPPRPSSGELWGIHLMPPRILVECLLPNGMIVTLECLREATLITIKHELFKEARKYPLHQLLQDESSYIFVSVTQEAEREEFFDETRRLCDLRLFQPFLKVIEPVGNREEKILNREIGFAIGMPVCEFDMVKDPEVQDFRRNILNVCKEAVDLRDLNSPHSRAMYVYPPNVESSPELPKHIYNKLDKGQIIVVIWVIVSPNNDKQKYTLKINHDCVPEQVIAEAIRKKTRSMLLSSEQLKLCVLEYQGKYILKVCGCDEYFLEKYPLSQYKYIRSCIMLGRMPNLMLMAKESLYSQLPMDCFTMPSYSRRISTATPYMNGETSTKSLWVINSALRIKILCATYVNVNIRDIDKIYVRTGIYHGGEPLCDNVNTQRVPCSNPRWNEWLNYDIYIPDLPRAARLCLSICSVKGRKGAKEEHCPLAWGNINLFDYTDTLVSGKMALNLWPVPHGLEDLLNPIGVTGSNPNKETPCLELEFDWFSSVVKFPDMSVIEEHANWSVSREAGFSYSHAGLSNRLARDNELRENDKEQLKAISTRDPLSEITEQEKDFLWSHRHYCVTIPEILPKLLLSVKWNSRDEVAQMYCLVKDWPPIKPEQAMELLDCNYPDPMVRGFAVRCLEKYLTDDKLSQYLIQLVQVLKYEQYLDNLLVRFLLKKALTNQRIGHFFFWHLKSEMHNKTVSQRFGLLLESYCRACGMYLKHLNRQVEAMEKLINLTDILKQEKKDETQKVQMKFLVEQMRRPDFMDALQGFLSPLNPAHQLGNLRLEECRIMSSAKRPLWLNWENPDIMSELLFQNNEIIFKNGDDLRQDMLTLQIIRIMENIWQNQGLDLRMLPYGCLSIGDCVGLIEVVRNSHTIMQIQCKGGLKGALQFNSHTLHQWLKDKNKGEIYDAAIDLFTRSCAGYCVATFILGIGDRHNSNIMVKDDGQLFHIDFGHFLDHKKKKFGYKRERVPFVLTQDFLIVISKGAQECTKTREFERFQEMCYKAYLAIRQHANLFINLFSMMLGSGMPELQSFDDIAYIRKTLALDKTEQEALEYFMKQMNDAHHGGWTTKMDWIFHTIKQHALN
Sequence (P27986 whole entry partner): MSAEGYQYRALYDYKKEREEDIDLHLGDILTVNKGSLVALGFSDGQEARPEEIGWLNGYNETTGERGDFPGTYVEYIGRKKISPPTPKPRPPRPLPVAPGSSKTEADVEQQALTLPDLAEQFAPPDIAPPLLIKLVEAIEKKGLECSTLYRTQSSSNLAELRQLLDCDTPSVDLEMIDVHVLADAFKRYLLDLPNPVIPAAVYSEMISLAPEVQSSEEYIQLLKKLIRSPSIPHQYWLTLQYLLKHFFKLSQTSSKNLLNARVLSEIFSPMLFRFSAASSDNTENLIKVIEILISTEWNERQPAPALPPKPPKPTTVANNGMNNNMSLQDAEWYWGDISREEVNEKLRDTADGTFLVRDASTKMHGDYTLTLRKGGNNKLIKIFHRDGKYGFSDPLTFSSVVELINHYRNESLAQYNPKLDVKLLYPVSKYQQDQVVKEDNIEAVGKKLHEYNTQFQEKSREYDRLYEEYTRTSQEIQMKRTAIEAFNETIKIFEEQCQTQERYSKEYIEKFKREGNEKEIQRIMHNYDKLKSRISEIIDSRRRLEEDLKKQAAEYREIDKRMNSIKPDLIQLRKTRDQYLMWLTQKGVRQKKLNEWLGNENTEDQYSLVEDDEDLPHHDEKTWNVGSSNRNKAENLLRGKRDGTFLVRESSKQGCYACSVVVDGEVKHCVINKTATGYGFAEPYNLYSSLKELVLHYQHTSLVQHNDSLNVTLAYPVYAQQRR
Assay: PI 3-Kinase (human) HTRF assay, PI3K α
Format: biochemical
Settings: read-out: PI3K α IC50
pIC50: −log10 of the molar value.
Field: pIC50. Provide a value for each of the compounds that follow.

stdin: Entry under review: CN1CCC(c2cnc3ccc(-c4ccc5oc(N)nc5c4)cc3n2)CC1 . Reported pIC50?
stdout: > 7.00

stdin: Entry under review: Nc1n[nH]c2c(-c3ccc4ncc(C(=O)N5CCOCC5)n4c3)cccc12 . Reported pIC50?
stdout: < 5.00

stdin: Entry under review: COc1ncc(-c2ccc3ncc(C(=O)N4CCOCC4)n3c2)cc1NS(=O)(=O)c1ccc(F)cc1F . Reported pIC50?
stdout: > 7.00

stdin: Entry under review: Nc1nc2cc(-c3ccc4ncc(N5CC(N6CCOCC6)C5)nc4c3)ccc2o1 . Reported pIC50?
stdout: > 7.00

stdin: Entry under review: C[C@H]1CN(c2cnc3ccc(-c4ccc5oc(N)nc5c4)cc3n2)CCN1 . Reported pIC50?
stdout: > 7.00

stdin: Entry under review: Nc1nc2cc(-c3ccc4ncn(C5CCCC5)c(=O)c4c3)ccc2o1 . Reported pIC50?
stdout: > 5.00

stdin: Entry under review: COc1ncc(-c2ccc3ncc(C(=O)N4CCOCC4)n3c2)cc1NS(=O)(=O)c1ccc(F)cc1 . Reported pIC50?
stdout: > 7.00

stdin: Entry under review: Nc1nc2cc(-c3ccc4ncnc(N5CCC(O)CC5)c4c3)ccc2o1 . Reported pIC50?
stdout: > 7.00

stdin: Entry under review: CNc1noc2cc(-c3ccc4ncc(C(=O)N5CCOCC5)n4c3)ccc12 . Reported pIC50?
stdout: > 5.00

stdin: Entry under review: Nc1nc2ccc(-c3ccc4ncc(C(=O)N5CCOCC5)n4c3)cc2o1 . Reported pIC50?
stdout: > 6.00

stdin: Entry under review: C[C@H]1CN(c2cnc3ccc(-c4cccc5c(N)nsc45)cc3n2)CCN1 . Reported pIC50?
stdout: < 5.00

stdin: Entry under review: C[C@H]1COCCN1C(=O)c1cnc2ccc(-c3ccc4oc(N)nc4c3)cn12 . Reported pIC50?
stdout: > 7.00

stdin: Entry under review: COc1ncc(-c2ccc3ncc(C(=O)N4CCOCC4)n3c2)c2cn[nH]c12 . Reported pIC50?
stdout: > 6.00

stdin: Entry under review: CN1CCC(n2cnc3ccc(-c4cnc(Cl)c(NS(=O)(=O)c5ccccc5)c4)cc3c2=O)CC1 . Reported pIC50?
stdout: > 7.00

stdin: Entry under review: Nc1nsc2cc(-c3ccc4ncc(C(=O)N5CCOCC5)n4c3)ccc12 . Reported pIC50?
stdout: > 5.00

stdin: Entry under review: Nc1nc2cc(-c3ccc4nccc(-c5ccncc5)c4c3)ccc2s1 . Reported pIC50?
stdout: > 7.00

stdin: Entry under review: Nc1nc2cc(-c3ccn4ncc(-c5ccncc5)c4c3)ccc2o1 . Reported pIC50?
stdout: > 7.00

stdin: Entry under review: Nc1nc2cc(-c3nc4cc(-c5cccnc5)cnc4s3)ccc2o1 . Reported pIC50?
stdout: < 5.00

stdin: Entry under review: CC(=O)Nc1nc2cc(-c3cc(F)c4oc(N)nc4c3)ccc2s1 . Reported pIC50?
stdout: > 5.00

stdin: Entry under review: CC(=O)Nc1nc2cc(-c3ccc4nc(N)oc4c3)ccc2s1 . Reported pIC50?
stdout: > 7.00

stdin: Entry under review: CC(=O)Nc1nc2cc(-c3ccc4oc(N)nc4c3)ccc2s1 . Reported pIC50?
stdout: < 5.00

stdin: Entry under review: Nc1nc2cc(-c3ccc4ncc(C(=O)N5CCC(N)CC5)n4c3)ccc2o1 . Reported pIC50?
stdout: > 7.00

stdin: Entry under review: Cc1nccn1-c1cnc2ccc(-c3ccc4oc(N)nc4c3)cc2n1 . Reported pIC50?
stdout: > 7.00

stdin: Entry under review: Nc1nc2cc(-c3ccc4ncc(C(=O)N5CCCC5)n4c3)ccc2o1 . Reported pIC50?
stdout: > 7.00

stdin: Entry under review: CN1CCN(C(=O)c2cnc3ccc(-c4ccc5oc(N)nc5c4)nn23)CC1 . Reported pIC50?
stdout: > 5.00

stdin: Entry under review: CS(=O)(=O)Nc1cccc(-c2ccc3ncc(C(=O)N4CCOCC4)n3c2)c1 . Reported pIC50?
stdout: < 5.00

stdin: Entry under review: Nc1nc2cc(-c3ccc4ncn(-c5ccccc5)c4c3)ccc2o1 . Reported pIC50?
stdout: > 7.00

stdin: Entry under review: Nc1nc2cc(-c3ccc4ncc(N5CC(N6CCN(CC7CC7)CC6)C5)nc4c3)ccc2o1 . Reported pIC50?
stdout: > 7.00

stdin: Entry under review: Nc1nc2cc(-c3ccc4ncc(C(=O)NCCO)n4c3)ccc2o1 . Reported pIC50?
stdout: > 7.00

stdin: Entry under review: Nc1nc2cc(-c3ccc4ncc(N5CC(N6CCNCC6)C5)nc4c3)ccc2o1 . Reported pIC50?
stdout: > 7.00

stdin: Entry under review: CCN(CC)CC(=O)N1CCN(c2cnc3ccc(-c4ccc5oc(N)nc5c4)cc3n2)CC1 . Reported pIC50?
stdout: > 7.00

stdin: Entry under review: O=C(c1cnc2ccc(-c3ccc(Cl)c(NS(=O)(=O)c4ccccc4)c3)cn12)N1CCOCC1 . Reported pIC50?
stdout: > 6.00

stdin: Entry under review: C[C@H]1CN(c2cnc3cccc(-c4ccc5nc(N)oc5c4)c3n2)CCN1 . Reported pIC50?
stdout: < 5.00

stdin: Entry under review: Nc1nc2cc(-c3ccc4nc(N)sc4c3)ccc2o1 . Reported pIC50?
stdout: > 6.00

stdin: Entry under review: CN1CCN(C(=O)c2cnc3cnc(-c4ccc5oc(N)nc5c4)cn23)CC1 . Reported pIC50?
stdout: > 5.00
